FYI, the data here is from ChEMBL document CHEMBL1140937.

tgt: Human immunodeficiency virus type 1 reverse transcriptase (Human immunodeficiency virus 1, UniProt Q72547, K103N)
assayExplanation: Binding affinity to HIV1 recombinant reverse transcriptase p66/p51 K103N mutant at enzyme-DNA-dNTP tertiary complex state
Known pKi of a selection of molecules
# pKi is unitless: minus log10 of the molar concentration; print number only

These solved cases illustrate the format of a correct answer.
CC[C@@]1(c2ccc(COc3cccc(Cl)c3)cc2)Oc2cccnc2-n2cccc2C1=O : 7.30
CCC1(c2ccc(COc3cccc(Cl)c3)cc2)Oc2cccnc2-n2cccc2C1=O (racemic) : 8.82
CCC1(c2ccc(COc3cccc(Cl)c3)cc2)Oc2ccccc2-n2cccc2C1=O (racemic) : 6.70

Attention now shifts to the item below.
Query: // pKi lookup, key: CC[C@@]1(c2ccc(COc3cccc(Cl)c3)cc2)Oc2ccccc2-n2cccc2C1=O
Reply: 7.30

* * *

tgt: Human immunodeficiency virus type 1 reverse transcriptase (Human immunodeficiency virus 1, UniProt Q72547)
assayExplanation: Inhibition of RNA dependent DNA polymerase activity of HIV1 recombinant reverse transcriptase p66/p51 expressed in Escherichia coli JM109
valueType: Ki (nM)
Please give a number only; it is taken to be in nM.

These solved cases illustrate the format of a correct answer.
CCC1(c2ccc(COc3cccc(Cl)c3)cc2)Oc2ccccc2-n2cccc2C1=O (racemic) : 100
CCC1(c2ccc(COc3ccccc3)cc2)Oc2cccnc2-n2cccc2C1=O (racemic) : 250

Attention now shifts to the item below.
Query: // Ki lookup, key: CCC1(c2ccc(COc3cccc(Cl)c3)cc2)Oc2cccnc2-n2cccc2C1=O (racemic)
Reply: 110

* * *

Tested on: Human immunodeficiency virus type 1 reverse transcriptase (Human immunodeficiency virus 1), Q72547 [L100I]
assayExplanation: Ratio of Ki for HIV1 recombinant reverse transcriptase p66/p51 L100I mutant at free enzyme state to Ki for HIV1 recombinant reverse transcriptase p66/p51 L100I mutant at enzyme-DNA-dNTP tertiary complex state
valueType: Ratio Ki

CCC1(c2ccc(COc3cccc(Cl)c3)cc2)Oc2ccccc2-n2cccc2C1=O (racemic) : 12.5

Query: // Ratio Ki lookup, key: CC[C@@]1(c2ccc(COc3cccc(Cl)c3)cc2)Oc2ccccc2-n2cccc2C1=O
Reply: 7.1

Query: // Ratio Ki lookup, key: CC[C@@]1(c2ccc(COc3cccc(Cl)c3)cc2)Oc2cccnc2-n2cccc2C1=O
Reply: 20

Query: // Ratio Ki lookup, key: CCC1(c2ccc(COc3cccc(Cl)c3)cc2)Oc2cccnc2-n2cccc2C1=O (racemic)
Reply: 20

* * *

Known Ki of a selection of compounds
tgt: Human immunodeficiency virus type 1 reverse transcriptase (Human immunodeficiency virus 1, UniProt Q72547, V179D)
assayExplanation: Binding affinity to HIV1 recombinant reverse transcriptase p66/p51 V179D mutant at enzyme-DNA binary complex state
Form entry: enter the amount, then its unit.

CC[C@@]1(c2ccc(COc3cccc(Cl)c3)cc2)Oc2cccnc2-n2cccc2C1=O : 5 µM
CCC1(c2ccc(COc3cccc(Cl)c3)cc2)Oc2cccnc2-n2cccc2C1=O (racemic) : 7 µM
CC[C@@]1(c2ccc(COc3cccc(Cl)c3)cc2)Oc2ccccc2-n2cccc2C1=O : 1.3 µM

Attention now shifts to the item below.
Query: // Ki lookup, key: CCC1(c2ccc(COc3cccc(Cl)c3)cc2)Oc2ccccc2-n2cccc2C1=O (racemic)
Reply: 7 µM

* * *

Known CC50 of a selection of molecules
assayExplanation: Cytotoxicity against human C8166 cells by MTT method
Assay type: cell-based
measurementContext: read-out: TC50 (the source's name)
Please give a number only; it is taken to be in µM.

CC[C@]1(c2ccc(COc3cccc(Cl)c3)cc2)Oc2ccccc2-n2cccc2C1=O : 60.9

Query: // CC50 lookup, key: CCC1(c2ccc(COc3cccc(Cl)c3)cc2)Oc2ccccc2-n2cccc2C1=O (racemic)
Reply: 40.3

Query: // CC50 lookup, key: CCC1(c2ccc(COc3cccc(Cl)c3)cc2)Oc2cccnc2-n2cccc2C1=O (racemic)
Reply: 12.6

Query: // CC50 lookup, key: CC[C@@]1(c2ccc(COc3cccc(Cl)c3)cc2)Oc2cccnc2-n2cccc2C1=O
Reply: 111

Query: // CC50 lookup, key: CC[C@@]1(c2ccc(COc3cccc(Cl)c3)cc2)Oc2ccccc2-n2cccc2C1=O
Reply: 106

* * *

Known Ratio Ki of a selection of compounds
System: Human immunodeficiency virus 1
assayExplanation: Ratio of Ki for HIV1 recombinant reverse transcriptase p66/p51 V179D mutant at free enzyme state to Ki for HIV1 recombinant reverse transcriptase p66/p51 V179D mutant at enzyme-DNA-dNTP tertiary complex state
A bare number is all that is needed in reply.

These solved cases illustrate the format of a correct answer.
CC[C@@]1(c2ccc(COc3cccc(Cl)c3)cc2)Oc2ccccc2-n2cccc2C1=O : 26
CCC1(c2ccc(COc3cccc(Cl)c3)cc2)Oc2ccccc2-n2cccc2C1=O (racemic) : 23.3
CC[C@@]1(c2ccc(COc3cccc(Cl)c3)cc2)Oc2cccnc2-n2cccc2C1=O : 10

Attention now shifts to the item below.
Query: // Ratio Ki lookup, key: CCC1(c2ccc(COc3cccc(Cl)c3)cc2)Oc2cccnc2-n2cccc2C1=O (racemic)
Reply: 4

* * *

tgt: Human immunodeficiency virus type 1 reverse transcriptase (Human immunodeficiency virus 1, UniProt Q72547, L100I)
assayExplanation: Binding affinity to HIV1 recombinant reverse transcriptase p66/p51 L100I mutant at enzyme-DNA binary complex state
valueType: pKi
# pKi is unitless: minus log10 of the molar concentration; print number only

These solved cases illustrate the format of a correct answer.
CCC1(c2ccc(COc3cccc(Cl)c3)cc2)Oc2cccnc2-n2cccc2C1=O (racemic) : 4.70
CCC1(c2ccc(COc3cccc(Cl)c3)cc2)Oc2ccccc2-n2cccc2C1=O (racemic) : 5.70
CC[C@@]1(c2ccc(COc3cccc(Cl)c3)cc2)Oc2cccnc2-n2cccc2C1=O : 5.70

Attention now shifts to the item below.
Query: // pKi lookup, key: CC[C@@]1(c2ccc(COc3cccc(Cl)c3)cc2)Oc2ccccc2-n2cccc2C1=O
Reply: 6.30

* * *

tgt: Human immunodeficiency virus type 1 reverse transcriptase (Human immunodeficiency virus 1, UniProt Q72547, K103N)
assayExplanation: Binding affinity to HIV1 recombinant reverse transcriptase p66/p51 K103N mutant at enzyme-DNA binary complex state
valueType: pKi
# pKi is unitless: minus log10 of the molar concentration; print number only

CCC1(c2ccc(COc3cccc(Cl)c3)cc2)Oc2ccccc2-n2cccc2C1=O (racemic) : 5.00
CC[C@@]1(c2ccc(COc3cccc(Cl)c3)cc2)Oc2cccnc2-n2cccc2C1=O : 6.70
CCC1(c2ccc(COc3cccc(Cl)c3)cc2)Oc2cccnc2-n2cccc2C1=O (racemic) : 4.82

Attention now shifts to the item below.
Query: // pKi lookup, key: CC[C@@]1(c2ccc(COc3cccc(Cl)c3)cc2)Oc2ccccc2-n2cccc2C1=O
Reply: 6.52

* * *

tgt: Human immunodeficiency virus type 1 reverse transcriptase (Human immunodeficiency virus 1, UniProt Q72547, V179D)
assayExplanation: Binding affinity to HIV1 recombinant reverse transcriptase p66/p51 V179D mutant at free enzyme state
measurementContext: read-out: Ki
valueType: pKi
# pKi is unitless: minus log10 of the molar concentration; print number only

CC[C@@]1(c2ccc(COc3cccc(Cl)c3)cc2)Oc2ccccc2-n2cccc2C1=O : 5.89
CCC1(c2ccc(COc3cccc(Cl)c3)cc2)Oc2cccnc2-n2cccc2C1=O (racemic) : 5.10
CC[C@@]1(c2ccc(COc3cccc(Cl)c3)cc2)Oc2cccnc2-n2cccc2C1=O : 5.30

Attention now shifts to the item below.
Query: // pKi lookup, key: CCC1(c2ccc(COc3cccc(Cl)c3)cc2)Oc2ccccc2-n2cccc2C1=O (racemic)
Reply: 5.15

* * *

tgt: Human immunodeficiency virus type 1 reverse transcriptase (Human immunodeficiency virus 1)
assayExplanation: Binding affinity to HIV1 recombinant reverse transcriptase p66/p51 at enzyme-DNA binary complex state
valueType: pKi
# pKi is unitless: minus log10 of the molar concentration; print number only

CCC1(c2ccc(COc3cccc(Cl)c3)cc2)Oc2cccnc2-n2cccc2C1=O (racemic) : 5.30

Query: Under Human immunodeficiency virus type 1 reverse transcriptase (Human immunodeficiency virus 1): pKi value of CC[C@@]1(c2ccc(COc3cccc(Cl)c3)cc2)Oc2ccccc2-n2cccc2C1=O ?
Reply: 6.30

Query: Under Human immunodeficiency virus type 1 reverse transcriptase (Human immunodeficiency virus 1): pKi value of CC[C@@]1(c2ccc(COc3cccc(Cl)c3)cc2)Oc2cccnc2-n2cccc2C1=O ?
Reply: 7.00

Query: Under Human immunodeficiency virus type 1 reverse transcriptase (Human immunodeficiency virus 1): pKi value of CCC1(c2ccc(COc3cccc(Cl)c3)cc2)Oc2ccccc2-n2cccc2C1=O (racemic) ?
Reply: 5.70

* * *

Known selectivity ratio of a selection of molecules
assayExplanation: in vitro
measurementContext: human, C8166 cells
Description: Therapeutic index, ratio of IC50 for HIV1 3B to TC50 for human C8166 cells
A bare number is all that is needed in reply.

CC[C@]1(c2ccc(COc3cccc(Cl)c3)cc2)Oc2ccccc2-n2cccc2C1=O : 12.9

Attention now shifts to the item below.
Query: // selectivity ratio lookup, key: CC[C@@]1(c2ccc(COc3cccc(Cl)c3)cc2)Oc2ccccc2-n2cccc2C1=O
Reply: 2410
